PROTOCOL_NOTES: Microsomal stability assay, human liver microsomes
Format: in vitro ADME
MEASUREMENT_CONTEXT: pH 7.4, 1 μM compound, 0.5 mg/mL protein, 37° C., read-out: HLM +/− NADPH: Clint (μL/min/mg protein)
ENDPOINT_NAME: microsomal CLint at 1 μM

- COc1ncc(COc2ccc(C(C)(C)c3cc(Cl)c(OCCCl)c(C#N)c3)cc2)o1 [Compound A112]: < 12 µL/min/mg
- CC(C)(c1ccc(OCc2nccc(NS(C)(=O)=O)n2)cc1)c1cc(Cl)c(OCCCl)c(C#N)c1 [Compound A184]: < 12 µL/min/mg
- CC(C)(c1ccc(OCc2coc(S(N)(=O)=O)c2)cc1)c1cc(Cl)c(OCCCl)c(C#N)c1 [Compound A207]: < 12 µL/min/mg
- CC(N)(c1ccc(OCc2ocnc2S(C)(=O)=O)cc1)c1cc(Cl)c(OCCCl)c(C#N)c1 (stereo not drawn) [Compound A105]: 12 to 48 µL/min/mg
- CC(C)(c1ccc(OCc2nccnc2NS(C)(=O)=O)cc1)c1cc(Cl)c(OCCCl)c(C#N)c1 [Compound A103]: 12 to 48 µL/min/mg
- CC(C)(c1ccc(OCc2cc(NS(C)(=O)=O)ccn2)cc1)c1cc(Cl)c(OCCCl)c(C#N)c1 [Compound A196]: 12 to 48 µL/min/mg
- Cc1nc(COc2ccc(C(C)(C)c3cc(Cl)c(OCCCl)c(C#N)c3)cc2)cc(NS(C)(=O)=O)n1 [Compound A99]: < 12 µL/min/mg
- CC(C)(c1ccc(-c2cc(CNS(C)(=O)=O)on2)cc1)c1cc(Cl)c(OCCCCl)c(Cl)c1 [Compound A22]: < 12 µL/min/mg
- [2H]c1c([2H])c(C(C)(C)c2cc(Cl)c(OCCCl)c(C#N)c2)c([2H])c([2H])c1OCc1ccnc(NS(C)(=O)=O)n1 [Compound A201]: < 12 µL/min/mg
- CC(Oc1ccc(C(C)(C)c2cc(Cl)c(OCCCl)c(C#N)c2)cc1)c1ncc(S(C)(=O)=O)o1 (stereo not drawn) [Compound A90]: < 12 µL/min/mg
- CC(C)(c1ccc(OCc2ocnc2S(C)(=O)=O)cc1)c1cc(Cl)c(OCCCl)c(C#N)c1 [Compound A28]: < 12 µL/min/mg
- CC(C)(c1ccc(OCc2ocnc2S(C)(=O)=O)cc1)c1cc(Cl)c(OCCCCl)c(Cl)c1 [Compound A3]: < 12 µL/min/mg
- CC(C)(c1ccc(OCc2ocnc2S(C)(=O)=O)cc1)c1cnc(NCCCl)nc1 [Compound A58]: 12 to 48 µL/min/mg
- CC(C)(C)N(c1ccc(OCc2ocnc2S(C)(=O)=O)cc1)c1cc(Cl)c(OCCCl)c(Cl)c1 [Compound A31]: 12 to 48 µL/min/mg
- C[C@@](O)(c1ccc(OCc2ocnc2S(C)(=O)=O)cc1)c1cc(Cl)c(OCCCl)c(C#N)c1 [Compound A107]: 12 to 48 µL/min/mg

----------
# maps each entry to its microsomal CLint at 1 μM
PROTOCOL_NOTES: Microsomal stability assay, mouse liver microsomes
Type: in vitro ADME
MEASUREMENT_CONTEXT: mouse, liver microsomes, pH 7.4, mouse liver microsomes, 1 μM compound, 0.5 mg/mL protein, 37° C.; read-out: MLM +30/− NADPH: Clint (μL/min/mg protein)
ENDPOINT_NAME: microsomal CLint at 1 μM

• Cc1nc(NS(C)(=O)=O)nc(COc2ccc(C(C)(C)c3cc(Cl)c(OCCCl)c(C#N)c3)cc2)c1C [Compound A123] = ≥ 48 µL/min/mg
• CC(Oc1ccc(C(C)(C)c2cc(Cl)c(OCCCl)c(C#N)c2)cc1)c1ocnc1S(C)(=O)=O (stereo not shown) [Compound A87] = 12 to 48 µL/min/mg
• CC(=O)NN1C(=O)N(c2ccc(C(C)(C)c3cc(Cl)c(OCCCl)c(Cl)c3)cc2)C(=O)C1(C)C [Compound B5] = < 12 µL/min/mg
• CC(C)(c1ccc(OCc2ccc(S(C)(=O)=O)o2)cc1)c1cc(Cl)c(OCCCl)c(C#N)c1 [Compound A168] = < 12 µL/min/mg
• C[C@@H](Oc1ccc(C(C)(C)c2cc(Cl)c(OCCCl)c(C#N)c2)cc1)c1ccnc(NS(C)(=O)=O)n1 (single isomer, unassigned) [Compound A169] = < 12 µL/min/mg
• CC(C)(c1ccc(CN2C(=O)N(S(C)(=O)=O)C(C)(C)C2=O)cc1)c1cc(Cl)c(OCCCl)c(Cl)c1 [Compound B3] = < 12 µL/min/mg
• CC(C)(c1ccc(OCc2ocnc2S(C)(=O)=O)cc1)c1cc(Cl)c(OCC(O)CCl)c(Cl)c1 (stereo not shown) [Compound A117] = 12 to 48 µL/min/mg

All figures here come from patent US11059795B2.
